B1: DYRK1B (parent)
chain: YQGPGTRRLQEVLGVQTGGPGGRR

Variants of: B1
Assay: protein stability index of a GFP-peptide fusion (GPS, HEK-293T) (PSI 1-6); higher = more stable;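 further: lentivirally expressed fusions sorted by FACS into six bins by GFP to DsRed ratio, PSI derived from sequencing read proportions per bin multiplied by bin number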
Conditions: c terminus: a fixed tail appended
Entries and their protein stability index
Just the number, please, no unit attached.

Known protein stability index results, listed for orientation:
RESIDUE CHANGE	MEASURED RESULT
E11L	2.28
P20T	3.32
E11C	2.44
G5R	2.58
R24W	2.73

We now examine a further variant.
protein stability index for `G18Y` ?
2.94
